- System: Escherichia coli TOP10
- Test method notes: shrunken log2 fold change of peptide-encoding DNA abundance (4.5 h post-induction vs induction); higher = less antimicrobial activity (less host growth inhibition)
- Measurement parameters: time post-induction: 4.5 h; library: site-saturation at positions 5, 18, 19, 20
Measured shrunken log2 fold change by item

Residues | shrunken log2 fold change
RRIRDRPPRLPRPRPRPWYSPRP | -0.0808
RRIRWRPPRLPRPRPRPLFAPRP | 0.579
RRIRCRPPRLPRPRPRPNQPPRP | -0.0425
RRIRRRPPRLPRPRPRPRPEPRP | 0.343
RRIRLRPPRLPRPRPRPSAEPRP | 0.342
RRIRRRPPRLPRPRPRPALRPRP | 0.648
RRIRHRPPRLPRPRPRPHINPRP | -0.563
RRIRVRPPRLPRPRPRPLAIPRP | 0.0184
RRIRVRPPRLPRPRPRPEKYPRP | -0.171
RRIRWRPPRLPRPRPRPGITPRP | 0.0178
RRIRGRPPRLPRPRPRPFMRPRP | 0.567
RRIRRRPPRLPRPRPRPYGMPRP | -0.242
RRIRKRPPRLPRPRPRPSFGPRP | -0.324
RRIRNRPPRLPRPRPRPWVQPRP | 0.00853
RRIRWRPPRLPRPRPRPLETPRP | -0.0608
RRIRHRPPRLPRPRPRPTYNPRP | -0.758
RRIRARPPRLPRPRPRPGDLPRP | 0.796
RRIRVRPPRLPRPRPRPAEWPRP | 0.129
RRIRLRPPRLPRPRPRPFIGPRP | -0.305
RRIRLRPPRLPRPRPRPYFKPRP | -1.3
RRIRTRPPRLPRPRPRPSINPRP | -0.63
RRIRSRPPRLPRPRPRPMYTPRP | -0.0916
RRIRVRPPRLPRPRPRPNPKPRP | -0.0645

---

- Tested on: Escherichia coli TOP10
- Test method notes: shrunken log2 fold change of peptide-encoding DNA abundance (4.5 h post-induction vs induction); higher = less antimicrobial activity (less host growth inhibition)
- Measurement parameters: time post-induction: 4.5 h; library: site-saturation at positions 5, 18, 19, 20
Given measured shrunken log2 fold change, output satisfied if it is greater than or equal to -0.2 and not satisfied if not.

Residues | Class assignment
RRIRFRPPRLPRPRPRPASKPRP | satisfied
RRIRWRPPRLPRPRPRPVDYPRP | satisfied
RRIRARPPRLPRPRPRPEEEPRP | satisfied
RRIRYRPPRLPRPRPRPFCLPRP | not satisfied

---

- System: Escherichia coli TOP10
- Test method notes: shrunken log2 fold change of peptide-encoding DNA abundance (4.5 h post-induction vs induction); higher = less antimicrobial activity (less host growth inhibition)
- Measurement parameters: time post-induction: 4.5 h; library: site-saturation at positions 5, 18, 19, 20
Measured shrunken log2 fold change by item
Assay readout: shrunken log2 fold change

Residues | Recorded number
RRIRNRPPRLPRPRPRPEGVPRP | 0.205
RRIRARPPRLPRPRPRPWLSPRP | 0.18
RRIRRRPPRLPRPRPRPYNYPRP | -0.501
RRIRARPPRLPRPRPRPSDHPRP | -0.134
RRIRHRPPRLPRPRPRPEVVPRP | -0.018
RRIRQRPPRLPRPRPRPHKTPRP | -0.146
RRIRARPPRLPRPRPRPIQNPRP | 0.376
RRIRDRPPRLPRPRPRPMDTPRP | -0.0196
RRIRERPPRLPRPRPRPHQQPRP | 0.119
RRIRWRPPRLPRPRPRPTDMPRP | 0.00348
RRIRVRPPRLPRPRPRPKPFPRP | 0.00969
RRIRHRPPRLPRPRPRPGHEPRP | -0.133
RRIRLRPPRLPRPRPRPQISPRP | -0.272
RRIRMRPPRLPRPRPRPTVRPRP | 0.216

---

- System: Escherichia coli TOP10
- Test method notes: shrunken log2 fold change of peptide-encoding DNA abundance (4.5 h post-induction vs induction); higher = less antimicrobial activity (less host growth inhibition)
- Measurement parameters: time post-induction: 4.5 h; library: site-saturation at positions 5, 18, 19, 20

Residues | shrunken log2 fold change
RRIRTRPPRLPRPRPRPNQKPRP | -0.306
RRIRMRPPRLPRPRPRPDGQPRP | 1.15
RRIRLRPPRLPRPRPRPMEHPRP | -0.00579
RRIRERPPRLPRPRPRPELIPRP | 0.0254

---

- System: Escherichia coli TOP10
- Test method notes: shrunken log2 fold change of peptide-encoding DNA abundance (4.5 h post-induction vs induction); higher = less antimicrobial activity (less host growth inhibition)
- Measurement parameters: time post-induction: 4.5 h; library: site-saturation at positions 5, 18, 19, 20

Residues | shrunken log2 fold change
RRIRQRPPRLPRPRPRPCTCPRP | -0.0638
RRIRIRPPRLPRPRPRPPHYPRP | -0.707
RRIRARPPRLPRPRPRPNENPRP | 0.177
RRIRGRPPRLPRPRPRPYHYPRP | -0.149
RRIRRRPPRLPRPRPRPTLMPRP | 0.581
RRIRVRPPRLPRPRPRPRLWPRP | 0.45
RRIRWRPPRLPRPRPRPCRTPRP | 0.112
RRIRRRPPRLPRPRPRPPYNPRP | -0.019
RRIRGRPPRLPRPRPRPARPPRP | 0.63
RRIRQRPPRLPRPRPRPTRVPRP | 0.305
RRIRHRPPRLPRPRPRPAQLPRP | -0.3
RRIRTRPPRLPRPRPRPANDPRP | -0.116
RRIRSRPPRLPRPRPRPMNIPRP | -0.196
RRIRPRPPRLPRPRPRPTPGPRP | 0.533
RRIRRRPPRLPRPRPRPDYNPRP | -0.0973
RRIRDRPPRLPRPRPRPGPDPRP | 0.217

---

Measured shrunken log2 fold change by item
- Test system: Escherichia coli TOP10
- Test method notes: shrunken log2 fold change of peptide-encoding DNA abundance (4.5 h post-induction vs induction); higher = less antimicrobial activity (less host growth inhibition)
- Measurement parameters: time post-induction: 4.5 h; library: site-saturation at positions 5, 18, 19, 20
Assay readout: shrunken log2 fold change

Residues | Target or test system | Assay readout | Recorded number
RRIRLRPPRLPRPRPRPKHKPRP | Escherichia coli TOP10 | shrunken log2 fold change | -0.103
RRIRIRPPRLPRPRPRPPADPRP | Escherichia coli TOP10 | shrunken log2 fold change | 0.271
RRIRDRPPRLPRPRPRPTIGPRP | Escherichia coli TOP10 | shrunken log2 fold change | -0.0292
RRIRGRPPRLPRPRPRPFSFPRP | Escherichia coli TOP10 | shrunken log2 fold change | 0.268
RRIRQRPPRLPRPRPRPVDNPRP | Escherichia coli TOP10 | shrunken log2 fold change | 0.0335
RRIRTRPPRLPRPRPRPLFMPRP | Escherichia coli TOP10 | shrunken log2 fold change | -0.737

---

- Tested on: Escherichia coli TOP10
- Test method notes: shrunken log2 fold change of peptide-encoding DNA abundance (4.5 h post-induction vs induction); higher = less antimicrobial activity (less host growth inhibition)
- Measurement parameters: time post-induction: 4.5 h; library: site-saturation at positions 5, 18, 19, 20
Measured shrunken log2 fold change by item

Residues | Target or test system | shrunken log2 fold change
RRIRKRPPRLPRPRPRPLVLPRP | Escherichia coli TOP10 | -0.0684
RRIRNRPPRLPRPRPRPNPCPRP | Escherichia coli TOP10 | -0.1
RRIRHRPPRLPRPRPRPHPKPRP | Escherichia coli TOP10 | 0.0027
RRIRHRPPRLPRPRPRPSINPRP | Escherichia coli TOP10 | -0.605
RRIRCRPPRLPRPRPRPPDAPRP | Escherichia coli TOP10 | 0.354
RRIRARPPRLPRPRPRPLLDPRP | Escherichia coli TOP10 | 0.788
RRIRHRPPRLPRPRPRPEFLPRP | Escherichia coli TOP10 | -0.0472
RRIRERPPRLPRPRPRPCYAPRP | Escherichia coli TOP10 | -0.383
RRIRNRPPRLPRPRPRPKTRPRP | Escherichia coli TOP10 | 0.138
RRIRNRPPRLPRPRPRPKGDPRP | Escherichia coli TOP10 | 0.0687
RRIRIRPPRLPRPRPRPQKWPRP | Escherichia coli TOP10 | -0.0915

---

Measured shrunken log2 fold change by item
- Test system: Escherichia coli TOP10;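 note: peptides expressed intracellularly from a pBAD plasmid library in pooled LB shake-flask culture, induced with 0.3% L-arabinose, DNA abundance read by NGS, three biological replicates, DESeq2 with apeglm shrinkage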
- Test method notes: shrunken log2 fold change of peptide-encoding DNA abundance (4.5 h post-induction vs induction); higher = less antimicrobial activity (less host growth inhibition)
- Measurement parameters: time post-induction: 4.5 h; library: site-saturation at positions 5, 18, 19, 20
Assay readout: shrunken log2 fold change

Residues | Recorded number
RRIRPRPPRLPRPRPRPLYWPRP | -0.0211
RRIRERPPRLPRPRPRPQTNPRP | -0.554
RRIRDRPPRLPRPRPRPCGSPRP | 0.0136
RRIRSRPPRLPRPRPRPGDNPRP | 0.0473
RRIRERPPRLPRPRPRPGKDPRP | -0.24
RRIRIRPPRLPRPRPRPDHCPRP | -0.0229
RRIRNRPPRLPRPRPRPMTWPRP | 0.0964
